Target: human OTR (Homo sapiens)
Construct: expressed in transfected cells
Sequence (P30559 whole entry): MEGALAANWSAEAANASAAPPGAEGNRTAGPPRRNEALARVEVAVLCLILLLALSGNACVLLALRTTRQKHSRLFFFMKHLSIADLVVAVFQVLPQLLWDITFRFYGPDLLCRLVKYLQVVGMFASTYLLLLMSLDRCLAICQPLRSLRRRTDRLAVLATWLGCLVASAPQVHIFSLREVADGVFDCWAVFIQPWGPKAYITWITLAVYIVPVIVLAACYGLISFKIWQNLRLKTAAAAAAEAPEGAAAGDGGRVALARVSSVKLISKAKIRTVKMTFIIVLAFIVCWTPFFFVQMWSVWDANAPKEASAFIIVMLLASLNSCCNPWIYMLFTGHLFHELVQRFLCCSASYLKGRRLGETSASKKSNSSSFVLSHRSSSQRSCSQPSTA
Experiment: Inhibition activity on human OTR (Fluo-4 calcium assay, HEK293/human OTR stably transfected cells, oxytocin 3 nM)
Assay type: cell-based
Details: calcium signal

>  <molecule>
COCc1nnc(N2C[C@@H]3C[C@]3(c3cccc(F)c3Cl)C2)n1-c1ccc(OC)nc1 [Example 4]

>  <assay system>
human OTR (Homo sapiens)

>  <units label>
µM

>  <IC50>
0.029

$$$$
>  <molecule>
COCc1nnc(N2C[C@@H]3C[C@]3(c3ccc(F)cc3Cl)C2)n1-c1ccc(OC)nc1 [Example 9]

>  <assay system>
human OTR (Homo sapiens)

>  <units label>
µM

>  <IC50>
0.014

$$$$
>  <molecule>
COc1ccc(-n2c(C(F)F)nnc2N2C[C@@H]3C[C@]3(c3ccc(F)cc3Cl)C2)cn1 [Example 13]

>  <assay system>
human OTR (Homo sapiens)

>  <units label>
µM

>  <IC50>
0.052

$$$$
>  <molecule>
COCc1nnc(N2C[C@@H]3C[C@]3(c3ccc(F)cc3Cl)C2)n1-c1ccc2c(c1)OCO2 [Example 5]

>  <assay system>
human OTR (Homo sapiens)

>  <units label>
µM

>  <IC50>
0.131

$$$$
>  <molecule>
COc1ccc(-n2c(N3C[C@@H]4C[C@]4(c4ccc(F)cc4Cl)C3)nnc2C(F)(F)F)cn1 [Example 12]

>  <assay system>
human OTR (Homo sapiens)

>  <units label>
µM

>  <IC50>
0.03

$$$$
>  <molecule>
[2H]C([2H])([2H])OCc1nnc(N2C[C@@H]3C[C@]3(c3ccc(F)cc3Cl)C2)n1-c1ccc(OC)nc1 [Example 14]

>  <assay system>
human OTR (Homo sapiens)

>  <units label>
µM

>  <IC50>
0.068

$$$$
>  <molecule>
COCc1nnc(N2C[C@H]3C[C@@]3(c3ccc(F)cc3Cl)C2)n1-c1ccc(OC)nc1 [Example 10]

>  <assay system>
human OTR (Homo sapiens)

>  <units label>
µM

>  <IC50>
0.624

$$$$
>  <molecule>
COc1ccc(-n2c(COCCF)nnc2N2C[C@@H]3C[C@]3(c3ccc(F)cc3Cl)C2)cn1 [Example 1]

>  <assay system>
human OTR (Homo sapiens)

>  <units label>
µM

>  <IC50>
0.044

$$$$
>  <molecule>
COCc1nnc(N2CC3CC3(c3ccc(F)cc3Cl)C2)n1-c1ccc(OC)nc1 (centres unmarked) [Example 8]

>  <assay system>
human OTR (Homo sapiens)

>  <units label>
µM

>  <IC50>
0.023

$$$$
>  <molecule>
CCOCc1nnc(N2C[C@@H]3C[C@]3(c3ccc(F)cc3Cl)C2)n1-c1ccc(OC)nc1 [Example 6]

>  <assay system>
human OTR (Homo sapiens)

>  <units label>
µM

>  <IC50>
0.0043

$$$$
>  <molecule>
COc1ccc(-n2c(COC(F)F)nnc2N2C[C@@H]3C[C@]3(c3ccc(F)cc3Cl)C2)cn1 [Example 11]

>  <assay system>
human OTR (Homo sapiens)

>  <units label>
µM

>  <IC50>
0.001

$$$$

====

Experiment: Pharmacokinetics assay in rats after intragastrical administration
Conditions: both, Sprague-Dawley, rat, plasma, po, 2 mg/kg

>  <molecule>
COCc1nnc(N2C[C@@H]3C[C@]3(c3ccc(F)cc3Cl)C2)n1-c1ccc(OC)nc1 [Example 9]

>  <CL/F>
20.2 mL/min/kg

$$$$
>  <molecule>
CCOCc1nnc(N2C[C@@H]3C[C@]3(c3ccc(F)cc3Cl)C2)n1-c1ccc(OC)nc1 [Example 6]

>  <CL/F>
68.9 mL/min/kg

$$$$
>  <molecule>
COCc1nnc(N2CC3CC3(c3ccc(F)cc3Cl)C2)n1-c1ccc(OC)nc1 (stereo not shown) [Example 8]

>  <CL/F>
23.3 mL/min/kg

$$$$
>  <molecule>
COc1ccc(-n2c(COC(F)F)nnc2N2C[C@@H]3C[C@]3(c3ccc(F)cc3Cl)C2)cn1 [Example 11]

>  <CL/F>
12.6 mL/min/kg

$$$$

Taken from patent US20210040073A1.
